Molecular target: Epidermal growth factor receptor (Homo sapiens)
Sequence (P00533 whole entry): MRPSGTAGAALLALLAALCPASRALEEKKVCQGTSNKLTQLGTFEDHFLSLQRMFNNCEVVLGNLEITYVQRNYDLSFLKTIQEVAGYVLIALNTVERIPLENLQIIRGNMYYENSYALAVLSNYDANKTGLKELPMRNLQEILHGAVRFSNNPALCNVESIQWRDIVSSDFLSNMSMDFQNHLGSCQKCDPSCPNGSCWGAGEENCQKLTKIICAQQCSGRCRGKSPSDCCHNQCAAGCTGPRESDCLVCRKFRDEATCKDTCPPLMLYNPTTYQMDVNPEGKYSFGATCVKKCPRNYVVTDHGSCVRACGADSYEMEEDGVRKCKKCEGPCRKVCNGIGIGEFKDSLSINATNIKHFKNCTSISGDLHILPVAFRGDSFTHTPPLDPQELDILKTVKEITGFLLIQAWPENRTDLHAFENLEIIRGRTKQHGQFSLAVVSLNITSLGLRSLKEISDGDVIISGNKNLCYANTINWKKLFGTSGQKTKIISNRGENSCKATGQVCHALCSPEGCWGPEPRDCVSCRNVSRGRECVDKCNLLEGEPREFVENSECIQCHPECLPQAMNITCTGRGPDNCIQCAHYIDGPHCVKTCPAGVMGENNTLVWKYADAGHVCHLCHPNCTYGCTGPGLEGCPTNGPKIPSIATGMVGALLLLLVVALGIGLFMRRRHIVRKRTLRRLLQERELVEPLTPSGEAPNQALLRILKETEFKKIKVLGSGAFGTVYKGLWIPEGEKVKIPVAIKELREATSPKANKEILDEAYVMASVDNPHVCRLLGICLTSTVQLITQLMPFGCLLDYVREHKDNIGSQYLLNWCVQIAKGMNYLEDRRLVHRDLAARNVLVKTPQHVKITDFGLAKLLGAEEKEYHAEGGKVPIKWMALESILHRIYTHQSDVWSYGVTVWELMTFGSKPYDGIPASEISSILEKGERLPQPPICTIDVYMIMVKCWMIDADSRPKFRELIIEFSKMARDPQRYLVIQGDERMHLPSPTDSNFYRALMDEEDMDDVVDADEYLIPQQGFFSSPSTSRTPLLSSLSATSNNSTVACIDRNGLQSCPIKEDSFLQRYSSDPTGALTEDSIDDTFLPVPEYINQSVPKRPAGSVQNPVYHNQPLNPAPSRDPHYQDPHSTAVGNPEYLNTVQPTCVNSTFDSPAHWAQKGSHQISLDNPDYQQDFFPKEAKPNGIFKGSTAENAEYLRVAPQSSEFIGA
// reported pIC50 for each item listed
Scale: negative log10 of molar concentration, which is what pIC50 denotes.

Some molecules with known pIC50 results, for comparison:
compound: CN1CCN(C2CCN(c3cc(Cl)c(Nc4ncc(Cl)c(Nc5ccccc5P(C)(C)=O)n4)cc3Cl)CC2)CC1
pIC50: 7.18

compound: COc1cc(Nc2ncc(Cl)c(Nc3ccccc3P(C)(C)=O)n2)ccc1N1CCC(N2CCN(C)CC2)CC1
pIC50: 7.29

Then this molecule:
Assay Epidermal growth factor receptor (Homo sapiens), sample Cc1cc(Nc2ncc(Cl)c(Nc3ccccc3P(C)(C)=O)n2)ccc1N1CCC(N2CCN(C)CC2)CC1 , pIC50 read: 7.21

* * *

Test: Tmax in Sprague dawley rat blood at 3 mg/kg, po measured after 2 hrs
Type: ADME, organism-based
observedProperty: Tmax (h)
Return type: number; implicit unit h.

compound: CN1CCN(C2CCN(c3ccc(Nc4ncc(Cl)c(Nc5ccccc5P(C)(C)=O)n4)cc3Cl)CC2)CC1
Tmax (h): 1.5

Please look at the following compound next.
Notebook: CN1CCN(C2CCN(c3cc(Cl)c(Nc4ncc(Cl)c(Nc5ccccc5P(C)(C)=O)n4)cc3Cl)CC2)CC1 , Tmax read as 2.67

* * *

Some compounds, each annotated with its measured pIC50.
Tested on: BaF3
Assay type: functional, cell-based
Conditions: Mus musculus, BaF3, 72 h
Please note pIC50 is a logarithmic value: minus log10 of concentration in mol/L. Answer with that number alone.

Examples with answers:
compound: C=CC(=O)Nc1cc(Nc2nccc(-c3cn(C)c4ccccc34)n2)c(OC)cc1N(C)CCN(C)C
observedProperty: pIC50
recordedResult: 5.54
//
compound: COc1cc(N2CCC(N3CCN(C)CC3)CC2)ccc1Nc1ncc(Cl)c(Nc2ccccc2P(C)(C)=O)n1
observedProperty: pIC50
recordedResult: 6.81

// next entry
Kindly note the recorded pIC50 for CN1CCN(C2CCN(c3cc(Cl)c(Nc4ncc(Cl)c(Nc5ccccc5P(C)(C)=O)n4)cc3Cl)CC2)CC1 , which is 6.85

* * *

Test: Half life in Sprague dawley rat blood at 3 mg/kg, po measured after 2 hrs
Format: ADME, organism-based
observedProperty: half-life

response.value for CN1CCN(C2CCN(c3ccc(Nc4ncc(Cl)c(Nc5ccccc5P(C)(C)=O)n4)cc3Cl)CC2)CC1 (field: half-life) = 2.84 h

Briefly, half-life measured for CN1CCN(C2CCN(c3cc(Cl)c(Nc4ncc(Cl)c(Nc5ccccc5P(C)(C)=O)n4)cc3Cl)CC2)CC1 : 2.16 h

* * *

Assay: AUC (0 to infinity) in Sprague dawley rat blood at 3 mg/kg, po measured after 2 hrs
Type: ADME, organism-based
Set-up: route oral, dose 3 mg/kg, time 2 hrs
# key: entry, value: AUC(0-inf)
Report as a plain number; the unit ng·h/mL is understood.

compound: CN1CCN(C2CCN(c3ccc(Nc4ncc(Cl)c(Nc5ccccc5P(C)(C)=O)n4)cc3Cl)CC2)CC1
AUC(0-inf), ng·h/mL: 2560

--- query ---
The measured AUC(0-inf) associated with CN1CCN(C2CCN(c3cc(Cl)c(Nc4ncc(Cl)c(Nc5ccccc5P(C)(C)=O)n4)cc3Cl)CC2)CC1 reads 5220

* * *

Assay: MRT (0 to infinity) in Sprague dawley rat blood at 3 mg/kg, po measured after 2 hrs
Format: ADME, organism-based
observedProperty: MRT inf
Be sure to follow the number with its unit.

compound: CN1CCN(C2CCN(c3cc(Cl)c(Nc4ncc(Cl)c(Nc5ccccc5P(C)(C)=O)n4)cc3Cl)CC2)CC1
MRT inf: 4.37 h

Input CN1CCN(C2CCN(c3ccc(Nc4ncc(Cl)c(Nc5ccccc5P(C)(C)=O)n4)cc3Cl)CC2)CC1 . Output MRT inf: 4.79 h
